Source: patent US20190211072A1

# SYSTEM TESTED: GluR (UniProt P30082)
# PROTOCOL SUMMARY: LY2409021 block of GGP817 action in HEK293-GluR cells transduced with H188
# ASSAY CONTEXT: read-out: IC50, block of GGP817 agonist action at the GluR, GGP817 300 nM
pIC50: −log10 of the molar value.
MEASUREMENT KIND: pIC50

> print(dat)
                                 cpd.smiles          system.tested  value.measured
1  Cc1cc(O[C@@H](CCC(F)(F)F)c2ccc(C(=O)NCCC(=O)O)cc2)cc(C)c1-c1ccc(C(C)(C)C)cc1  GluR (UniProt P30082)            6.04
